Source listed as patent US20230242651A1.

# TARGET: T1, human interleukin-23 receptor (IL23R) (human, UniProt Q5VWK5 24-355, limits assumed)
# T1 construct: also called human IL23R
# T1 sequence (looked up): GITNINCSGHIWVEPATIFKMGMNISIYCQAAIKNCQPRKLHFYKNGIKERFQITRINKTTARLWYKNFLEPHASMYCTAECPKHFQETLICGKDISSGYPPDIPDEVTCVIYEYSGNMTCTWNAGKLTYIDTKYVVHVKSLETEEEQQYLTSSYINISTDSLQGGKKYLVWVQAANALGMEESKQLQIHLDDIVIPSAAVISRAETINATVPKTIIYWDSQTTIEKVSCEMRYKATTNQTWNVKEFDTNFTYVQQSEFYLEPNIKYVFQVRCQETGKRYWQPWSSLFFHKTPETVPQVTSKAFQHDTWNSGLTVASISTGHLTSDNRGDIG
# PROCEDURE DETAILS: SPR, scFv
PROPERTY NAME: kon (M⁻¹ s⁻¹)

BINDER | REPORTED VALUE
Vκ2/VH3 consensus (uncapped), human IL23R specific scFv (scFv, scFv VL-linker-VH, made in E. coli; Vκ framework IV (uncapped, full consensus); also called Vκ2VH3 uncapped) scFv: DIVMTQSPLSLPVTPGEPASISCQASENIYSFLAWYLQKPGQSPQLLIYSASKLAAGVPDRFSGSGSGTDFTLKISRVEAEDVGVYYCQQTNRYSNPDIYNVFGQGTKVEIKRGGGGSGGGGSGGGGSGGGGSEVQLVESGGGLVQPGGSLRLSCAASGIDFNSNYYMCWVRQAPGKGLEWVSCIYVGSHVNTYYANWAKGRFTISRDNSKNTLYLQMNSLRAEDTAVYYCATSGSSVLYFKFWGQGTLVTVSS | 1.82e+06
Vκ1/VH2 consensus (uncapped), human IL23R specific scFv (scFv, scFv VL-linker-VH, made in E. coli; Vκ framework IV (uncapped, full consensus); also called Vκ1VH2 uncapped) scFv: DIQMTQSPSSLSASVGDRVTITCQASENIYSFLAWYQQKPGKAPKLLIYSASKLAAGVPSRFSGSGSGTDFTLTISSLQPEDFATYYCQQTNRYSNPDIYNVFGQGTKVEIKRGGGGSGGGGSGGGGSGGGGSQVQLKESGPALVKPTQTLTLTCTFSGIDFNSNYYMCWIRQPPGKALEWLACIYVGSHVNTYYANWAKGRLTISKDTSKNQVVLTMTNMDPVDTATYYCATSGSSVLYFKFWGQGTLVTVSS | 1.58e+06
Vκ1/VH1B consensus (uncapped), human IL23R specific scFv (scFv, scFv VL-linker-VH, made in E. coli; Vκ framework IV (uncapped, full consensus); also called Vκ1VH1B uncapped) scFv: DIQMTQSPSSLSASVGDRVTITCQASENIYSFLAWYQQKPGKAPKLLIYSASKLAAGVPSRFSGSGSGTDFTLTISSLQPEDFATYYCQQTNRYSNPDIYNVFGQGTKVEIKRGGGGSGGGGSGGGGSGGGGSQVQLVQSGAEVKKPGASVKVSCKASGIDFNSNYYMCWVRQAPGQGLEWMGCIYVGSHVNTYYANWAKGRVTMTRDTSISTAYMELSSLRSEDTAVYYCATSGSSVLYFKFWGQGTLVTVSS | 2.45e+06
Vκ2/VH1B consensus λ-capped, human IL23R specific scFv (scFv, scFv VL-linker-VH, made in E. coli; also called Vκ2VH1B capped) scFv: DIVMTQSPLSLPVTPGEPASISCQASENIYSFLAWYLQKPGQSPQLLIYSASKLAAGVPDRFSGSGSGTDFTLKISRVEAEDVGVYYCQQTNRYSNPDIYNVFGGGTKLTVLGGGGGSGGGGSGGGGSGGGGSQVQLVQSGAEVKKPGASVKVSCKASGIDFNSNYYMCWVRQAPGQGLEWMGCIYVGSHVNTYYANWAKGRVTMTRDTSISTAYMELSSLRSEDTAVYYCATSGSSVLYFKFWGQGTLVTVSS | 2.29e+06
Vκ1/VH1A consensus λ-capped, human IL23R specific scFv (scFv, scFv VL-linker-VH, made in E. coli; also called Vκ1VH1A capped) scFv: DIQMTQSPSSLSASVGDRVTITCQASENIYSFLAWYQQKPGKAPKLLIYSASKLAAGVPSRFSGSGSGTDFTLTISSLQPEDFATYYCQQTNRYSNPDIYNVFGGGTKLTVLGGGGGSGGGGSGGGGSGGGGSQVQLVQSGAEVKKPGSSVKVSCKASGIDFNSNYYMCWVRQAPGQGLEWMGCIYVGSHVNTYYANWAKGRVTITADESTSTAYMELSSLRSEDTAVYYCATSGSSVLYFKFWGQGTLVTVSS | 3.71e+06
Vκ1/VH1B consensus λ-capped, human IL23R specific scFv (scFv, scFv VL-linker-VH, made in E. coli; also called Vκ1VH1B capped) scFv: DIQMTQSPSSLSASVGDRVTITCQASENIYSFLAWYQQKPGKAPKLLIYSASKLAAGVPSRFSGSGSGTDFTLTISSLQPEDFATYYCQQTNRYSNPDIYNVFGGGTKLTVLGGGGGSGGGGSGGGGSGGGGSQVQLVQSGAEVKKPGASVKVSCKASGIDFNSNYYMCWVRQAPGQGLEWMGCIYVGSHVNTYYANWAKGRVTMTRDTSISTAYMELSSLRSEDTAVYYCATSGSSVLYFKFWGQGTLVTVSS | 2.4e+06
Vκ3/VH1B consensus (uncapped), human IL23R specific scFv (scFv, scFv VL-linker-VH, made in E. coli; Vκ framework IV (uncapped, full consensus); also called Vκ3VH1B uncapped) scFv: DIVLTQSPATLSLSPGERATLSCQASENIYSFLAWYQQKPGQAPRLLIYSASKLAAGVPARFSGSGSGTDFTLTISSLEPEDFAVYYCQQTNRYSNPDIYNVFGQGTKVEIKRGGGGSGGGGSGGGGSGGGGSQVQLVQSGAEVKKPGASVKVSCKASGIDFNSNYYMCWVRQAPGQGLEWMGCIYVGSHVNTYYANWAKGRVTMTRDTSISTAYMELSSLRSEDTAVYYCATSGSSVLYFKFWGQGTLVTVSS | 1.59e+06
Vκ1/VH6 consensus (uncapped), human IL23R specific scFv (scFv, scFv VL-linker-VH, made in E. coli; Vκ framework IV (uncapped, full consensus); also called Vκ1VH6 uncapped) scFv: DIQMTQSPSSLSASVGDRVTITCQASENIYSFLAWYQQKPGKAPKLLIYSASKLAAGVPSRFSGSGSGTDFTLTISSLQPEDFATYYCQQTNRYSNPDIYNVFGQGTKVEIKRGGGGSGGGGSGGGGSGGGGSQVQLQQSGPGLVKPSQTLSLTCAISGIDFNSNYYMCWIRQSPGRGLEWLGCIYVGSHVNTYYANWAKGRITINPDTSKNQFSLQLNSVTPEDTAVYYCATSGSSVLYFKFWGQGTLVTVSS | 1.23e+06
Vκ2/VH6 consensus (uncapped), human IL23R specific scFv (scFv, scFv VL-linker-VH, made in E. coli; Vκ framework IV (uncapped, full consensus); also called Vκ2VH6 uncapped) scFv: DIVMTQSPLSLPVTPGEPASISCQASENIYSFLAWYLQKPGQSPQLLIYSASKLAAGVPDRFSGSGSGTDFTLKISRVEAEDVGVYYCQQTNRYSNPDIYNVFGQGTKVEIKRGGGGSGGGGSGGGGSGGGGSQVQLQQSGPGLVKPSQTLSLTCAISGIDFNSNYYMCWIRQSPGRGLEWLGCIYVGSHVNTYYANWAKGRITINPDTSKNQFSLQLNSVTPEDTAVYYCATSGSSVLYFKFWGQGTLVTVSS | 88700
